system: Mycobacterium tuberculosis; assay: Antimycobacterial activity against isoniazid-resistant Mycobacterium tuberculosis after 2 weeks by BACTEC 460 radiometric method; format: functional; conditions: 336 h
Reported metric: MIC

Illustrative cases are given below, each with its answer.
>  <Compound>
COc1cc2c(cc1OC)C1=NN(C(N)=S)C(c3ccncc3)C1C2 (stereo not given)

>  <Reported metric>
MIC

>  <Value>
10 µM

$$$$
>  <Compound>
CO[C@H]1/C=C/O[C@@]2(C)Oc3c(C)c(O)c4c(O)c(c(/C=N/N5CCN(C)CC5)c(O)c4c3C2=O)NC(=O)/C(C)=C\C=C\[C@H](C)[C@H](O)[C@@H](C)[C@@H](O)[C@@H](C)[C@H](OC(C)=O)[C@@H]1C [RIFAMPIN]

>  <Reported metric>
MIC

>  <Value>
3.12 µM

$$$$
>  <Compound>
COc1cc2c(cc1OC)C1=NN(C(=O)Nc3ccc(C)cc3C)C(c3ccncc3)C1C2 (stereo not given)

>  <Reported metric>
MIC

>  <Value>
> 12.5 µM

$$$$
>  <Compound>
COc1ccc(C2C3Cc4cc(OC)c(OC)cc4C3=NN2C(=O)Nc2c(C)cccc2C)cc1 (stereo not given)

>  <Reported metric>
MIC

>  <Value>
> 12.5 µM

$$$$
>  <Compound>
COc1cc2c(cc1OC)C1=NN(C(N)=S)C(c3ccccc3)C1C2 (stereo not given)

>  <Reported metric>
MIC

>  <Value>
12.5 µM

$$$$
>  <Compound>
COc1cc2c(cc1OC)C1=NN(C(=O)Nc3c(C)cccc3C)C(c3ccncc3)C1C2 (stereo not given)

>  <Reported metric>
MIC

>  <Value>
> 12.5 µM

$$$$
>  <Compound>
COc1cc2c(cc1OC)C1=NN(C(=O)Nc3c(C)cccc3C)C(c3ccccc3)C1C2 (stereo not given)

>  <Reported metric>
MIC

>  <Value>
> 12.5 µM

$$$$
>  <Compound>
COc1cc2c(cc1OC)C1=NN(C(N)=S)C(c3ccccc3Cl)C1C2 (stereo not given)

>  <Reported metric>
MIC

>  <Value>
10 µM

$$$$
>  <Compound>
COc1ccc(C2C3Cc4cc(OC)c(OC)cc4C3=NN2C(N)=S)cc1OC (stereo not given)

>  <Reported metric>
MIC

>  <Value>
12.5 µM

$$$$
>  <Compound>
COc1cc2c(cc1OC)C1=NN(C(=O)Nc3ccc(C)cc3C)C(c3ccccc3)C1C2 (stereo not given)

>  <Reported metric>
MIC

>  <Value>
> 12.5 µM

$$$$

Per the records, this compound ( COc1cc2c(cc1OC)C1=NN(C(=O)Nc3ccc(C)cc3C)C(c3ccccc3Cl)C1C2 (stereo not given) ) has MIC equal to 10 µM

Per the records, this compound ( COc1cc2c(cc1OC)C1=NN(C(=O)Nc3c(C)cccc3C)C(c3ccc(F)cc3)C1C2 (stereo not given) ) has MIC equal to 10 µM

Per the records, this compound ( COc1cc2c(cc1OC)C1=NN(C(=O)Nc3c(C)cccc3C)C(c3ccccc3Cl)C1C2 (stereo not given) ) has MIC equal to 12.5 µM

###

system: Mycobacterium tuberculosis; experiment: Antimycobacterial activity against isoniazid-resistant Mycobacterium tuberculosis after 2 weeks by BACTEC 460 radiometric method; format: functional; settings: 336 h
Reported metric: MIC (µM)
Please state the figure in µM; there is no need to write the unit.

Illustrative cases are given below, each with its answer.
>  <Compound>
COc1cc2c(cc1OC)C1=NN(C(N)=S)C(c3ccc(F)cc3)C1C2 (configuration not stated)

>  <Measurement unit>
µM

>  <MIC>
6.25

$$$$
>  <Compound>
COc1cc2c(cc1OC)C1=NN(C(=O)Nc3ccc(C)cc3C)C(c3ccc(F)cc3)C1C2 (configuration not stated)

>  <Measurement unit>
µM

>  <MIC>
12.5

$$$$

NNC(=O)c1ccncc1 [ISONIAZID] tested on Mycobacterium tuberculosis gave MIC: 12.5
